Listed next: entries and their corresponding Inhibition.
# System: Candida albicans
# MEASUREMENT PARAMETERS: Concentration 32 ug.mL-1; ASSAY_TEST Inhibition of Fungal Growth; detection method Absorption (OD530)
# Description: Antifungal activity against Candida albicans ATCC 90028 (CO-ADD:FG_001); MIC in YNB media using NBS plates, by OD630
Potency and affinity values are given separately.
RECORDED ENDPOINT: Inhibition (%)

CC(C)CCn1c(=O)c2ccc(C(=O)NC3CCCCC3)cc2n2c(=S)[nH]nc12: 2.77
Cc1ccc(-c2cc3c4nn(CC(=O)NCc5ccccc5)c(=O)n4ccn3n2)cc1C: 4.46
CC(C)CCn1c(=O)c2sccc2n2c(=O)n(CC(N)=O)nc12: -1.13
CCOC(=O)c1cccc(NC(=O)Cn2nc3c(Oc4cccc(C)c4C)nccn3c2=O)c1: -0.11
Cc1ccc(Sc2ccc3nn(CC(=O)Nc4cccc(Cl)c4)c(=O)n3n2)cc1: 23.7
Cc1ccccc1CN(c1ccc(Cl)cc1)S(=O)(=O)c1cccn2c(C)nnc12: 2.31
O=C(Cn1nc2c(Sc3cccc(F)c3)nccn2c1=O)Nc1cccc(C(F)(F)F)c1: -0.63
Cc1cc2nn(CC(=O)Nc3ccc(Cl)cc3)c(=O)n2c(Nc2ccc(F)c(C)c2)n1: 3.54
COc1ccc(-c2cc3c4nn(CC(=O)Nc5ccc(C)cc5)c(=O)n4ccn3n2)cc1: 8.11
COc1cc(NC(=O)Cn2nc3ccc(SC4CCCCC4)nn3c2=O)cc(OC)c1: 4.08
COc1ccc(Cl)cc1NC(=O)CSc1nc2ccccc2n2cnnc12: 6.06
CCc1ccc(NC(=O)Cn2nc3ccc(SC4CCCCC4)nn3c2=O)cc1: 2.46
Cc1ccc(C)c(Cn2nc3ccc(-c4ccc(C)c(C)c4)nn3c2=O)c1: 1.53
COc1ccc(NC(=O)Cn2nc3c(N4CCCC4)nccn3c2=O)cc1: 1.38
CCc1nnc2c(S(=O)(=O)N(Cc3cccc(OC)c3)c3ccccc3)cccn12: 4.76
CCc1ccc(N(Cc2ccccc2Cl)S(=O)(=O)c2cccn3c(C)nnc23)cc1: 5.69
Cc1nnc2c(SCC(=O)Nc3ccc(F)cc3F)nc3ccccc3n12: 0.69
O=C(Cn1nc2c3cc(-c4ccc(Cl)cc4)nn3ccn2c1=O)N1CCN(c2ccccc2)CC1: 0.94
Cc1nnc2c(SCC(=O)Nc3ccc4c(c3)OCCO4)nc3ccccc3n12: 1.7
COc1ccc(NC(=O)Cn2nc3c(N4CCOCC4)nccn3c2=O)c(OC)c1: 0.63
CCCCN(C)c1ccc2nnc(CCc3nc(-c4cccc(Br)c4)no3)n2n1: 15.05
